target: p110δ/p85α (Homo sapiens, UniProt O00329); construct: purchased Invitrogen; test: Transcreener KINASE Assay, kinase inhibition of p110δ/p85α; format: biochemical; details: @ 1 uM
Sequence (O00329 whole entry, species assumed): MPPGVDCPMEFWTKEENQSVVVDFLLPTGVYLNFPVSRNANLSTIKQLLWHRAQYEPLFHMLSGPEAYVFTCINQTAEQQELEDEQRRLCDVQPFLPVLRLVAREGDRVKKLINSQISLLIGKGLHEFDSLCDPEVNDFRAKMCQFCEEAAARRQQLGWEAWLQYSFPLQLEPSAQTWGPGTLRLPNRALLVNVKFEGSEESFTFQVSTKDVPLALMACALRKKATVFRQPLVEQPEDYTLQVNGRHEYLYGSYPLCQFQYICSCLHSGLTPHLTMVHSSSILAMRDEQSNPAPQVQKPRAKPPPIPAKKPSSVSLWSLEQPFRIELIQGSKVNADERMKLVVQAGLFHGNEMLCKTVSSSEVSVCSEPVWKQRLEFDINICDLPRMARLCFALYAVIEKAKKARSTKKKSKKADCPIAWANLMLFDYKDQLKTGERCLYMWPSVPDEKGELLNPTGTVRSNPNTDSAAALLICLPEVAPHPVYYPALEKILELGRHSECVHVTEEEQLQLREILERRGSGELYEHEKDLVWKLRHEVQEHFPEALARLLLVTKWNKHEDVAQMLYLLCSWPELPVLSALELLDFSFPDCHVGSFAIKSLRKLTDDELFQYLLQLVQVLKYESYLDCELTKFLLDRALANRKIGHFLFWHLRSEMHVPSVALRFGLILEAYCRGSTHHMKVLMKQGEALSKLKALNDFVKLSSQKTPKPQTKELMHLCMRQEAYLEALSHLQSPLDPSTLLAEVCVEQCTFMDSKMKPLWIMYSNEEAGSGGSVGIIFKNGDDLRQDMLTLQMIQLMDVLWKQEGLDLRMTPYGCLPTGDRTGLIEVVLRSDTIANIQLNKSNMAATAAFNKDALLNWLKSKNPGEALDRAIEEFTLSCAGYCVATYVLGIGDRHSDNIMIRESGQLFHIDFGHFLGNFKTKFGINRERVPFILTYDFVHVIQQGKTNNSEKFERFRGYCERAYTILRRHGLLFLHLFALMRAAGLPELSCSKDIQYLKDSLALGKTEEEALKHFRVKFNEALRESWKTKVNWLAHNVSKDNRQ
Sequence (P27986 whole entry partner, species assumed): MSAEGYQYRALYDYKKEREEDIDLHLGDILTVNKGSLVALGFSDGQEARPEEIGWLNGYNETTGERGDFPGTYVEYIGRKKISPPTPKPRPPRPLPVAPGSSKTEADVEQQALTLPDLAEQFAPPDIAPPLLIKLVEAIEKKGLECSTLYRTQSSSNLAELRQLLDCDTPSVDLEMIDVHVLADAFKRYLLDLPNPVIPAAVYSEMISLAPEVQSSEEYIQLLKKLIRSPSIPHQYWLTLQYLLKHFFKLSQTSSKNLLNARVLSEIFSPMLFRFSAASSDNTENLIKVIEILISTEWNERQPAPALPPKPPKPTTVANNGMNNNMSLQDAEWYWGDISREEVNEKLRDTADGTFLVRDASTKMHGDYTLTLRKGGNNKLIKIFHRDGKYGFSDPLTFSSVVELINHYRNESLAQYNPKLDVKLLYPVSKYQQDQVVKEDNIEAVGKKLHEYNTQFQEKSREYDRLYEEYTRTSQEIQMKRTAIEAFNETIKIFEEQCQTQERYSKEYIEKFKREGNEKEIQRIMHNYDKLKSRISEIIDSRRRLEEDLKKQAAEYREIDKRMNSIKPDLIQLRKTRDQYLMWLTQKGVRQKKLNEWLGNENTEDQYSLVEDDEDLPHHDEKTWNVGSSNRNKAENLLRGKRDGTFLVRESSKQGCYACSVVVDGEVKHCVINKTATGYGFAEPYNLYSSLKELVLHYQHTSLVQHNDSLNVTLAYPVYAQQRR
In this section we review reported PI3Kδ IH % @ 1 uM values for a set of compounds.
State just the number; it will be interpreted in %.

CC(Nc1ncnc(N)c1C#N)c1cn2ccc(Cl)c2c(=O)n1-c1ccc(F)cc1 (stereo not shown)	99.0

Could you please provide reported PI3Kδ IH % @ 1 uM for O=c1c2cccn2nc([C@@H]2CCCN2c2ncnc3[nH]cnc23)n1-c1cccc(F)c1 ? Thanks!
97.8

Could you please provide reported PI3Kδ IH % @ 1 uM for N#Cc1c[nH]c2ncnc(N3CCC[C@H]3c3nn4cccc4c(=O)n3-c3cccc(F)c3)c12 ? Thanks!
100
